Catalogue of Avg. POC values
target: PKCtheta (Homo sapiens (Human)); experiment: KinaseProfiler off-target kinase profiling; type: biochemical; conditions: 10 μM, ATP near Km
Sequence (Q04759 whole entry): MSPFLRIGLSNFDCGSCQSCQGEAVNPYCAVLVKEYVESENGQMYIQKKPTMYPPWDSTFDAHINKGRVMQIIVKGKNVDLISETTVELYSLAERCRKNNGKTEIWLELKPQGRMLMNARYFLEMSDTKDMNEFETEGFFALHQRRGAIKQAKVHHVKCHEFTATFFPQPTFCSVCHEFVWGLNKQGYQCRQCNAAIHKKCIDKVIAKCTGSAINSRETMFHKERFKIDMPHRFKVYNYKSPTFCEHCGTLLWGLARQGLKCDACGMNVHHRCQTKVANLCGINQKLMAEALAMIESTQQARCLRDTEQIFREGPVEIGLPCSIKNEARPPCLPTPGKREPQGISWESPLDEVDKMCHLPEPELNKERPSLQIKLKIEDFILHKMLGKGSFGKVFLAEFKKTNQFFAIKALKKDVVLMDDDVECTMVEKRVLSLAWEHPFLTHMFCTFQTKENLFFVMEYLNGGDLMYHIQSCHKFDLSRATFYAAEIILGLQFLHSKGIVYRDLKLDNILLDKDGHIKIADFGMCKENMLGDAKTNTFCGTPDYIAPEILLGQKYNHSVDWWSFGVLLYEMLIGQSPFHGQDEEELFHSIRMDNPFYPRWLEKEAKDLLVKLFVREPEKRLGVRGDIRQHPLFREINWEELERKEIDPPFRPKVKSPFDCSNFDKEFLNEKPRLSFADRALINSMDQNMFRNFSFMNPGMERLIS
Write the answer as a number in POC, unit excluded.

The cases that follow already have their Avg. POC on record.
{"columns": ["MOLECULE", "UNIT SYMBOL", "Avg. POC"],
 "data": [
  ["Cc1c(-c2cnn(C)c2)nn(-c2ccccc2)c1NC(=O)NC1CCOc2cc(F)ccc21 (stereo not shown) [Example 12]", "POC", 117.5],
  ["Cc1c(-c2ccc(=O)n(C)c2)nn(-c2ccccc2)c1NC(=O)NC1CN(CC(F)(F)F)Cc2ccccc21 (stereo not shown) [Example 26]", "POC", 109],
  ["Cc1c(-c2cnn(C)c2)nn(-c2ccccc2)c1NC(=O)N[C@H]1CCCc2ccccc21 [Example 2]", "POC", 101]
]}

Entry COCc1ccc2c(c1)C(NC(=O)Nc1c(C)c(-c3cnn(C)c3)nn1-c1ccccc1)COC2 (stereo not shown) [Example 32] : reported Avg. POC = ?
117
